Target: T1, hRAGE (1-331) / human sRAGE 1-331, V#400 (human, UniProt Q15109 23-331)
T1 construct: also called sRAGE [RAGE (1-331)]; RAGE (antigen of the Biacore runs)
T1 sequence (Q15109 23-331): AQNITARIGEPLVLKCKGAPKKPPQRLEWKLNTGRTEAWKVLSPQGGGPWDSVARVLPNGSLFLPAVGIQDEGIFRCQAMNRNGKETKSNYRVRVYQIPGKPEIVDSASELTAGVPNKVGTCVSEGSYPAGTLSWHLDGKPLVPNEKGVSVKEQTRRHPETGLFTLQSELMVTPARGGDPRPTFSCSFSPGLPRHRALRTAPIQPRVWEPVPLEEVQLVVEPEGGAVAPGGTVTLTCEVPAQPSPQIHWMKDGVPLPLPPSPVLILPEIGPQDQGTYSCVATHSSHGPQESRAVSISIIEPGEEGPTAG
Assay: competition ELISA on coated hRAGE (1-331); competitor biotinylated m11E6 at 0.3 µg/ml
observable: pIC50
One number for each entry, as −log10 of the molar value.

>  <binder>
humanized anti-RAGE antibody h11E6.9 (antibody, V domains shown, Full-length humanized antibody transiently produced in 293-6E cells) VH: EVQLVQSGAEVKKPGASVKVSCKASGYTFTNFGMNWVRQAPGQGLEWMGYINTNTGESIYSEEFKGRVTMTRDTSTSTAYMELSSLRSEDTAVYYCARSRMVTAYGMDYWGQGTSVTVSS VL: DIQMTQSPSSLSASVGDRVTITCKASQNVGTAVAWYQQKPGKAPKLLIYSASNRYTGVPSRFSGSGSGTDFTLTISSLQPEDFATYYCQQYSSYPLTFGQGTKLEIKR

>  <observedValue>
7.75

$$$$
>  <binder>
humanized anti-RAGE antibody h11E6.13 (antibody, V domains shown, Full-length humanized antibody transiently produced in 293-6E cells) VH: EIQLVQSGAEVKKPGASVKVSCKASGYTFTNFGMNWVRQAPGQGLEWMGYINTNTGESIYSEEFKGRFTFTLDTSTSTAYMELSSLRSEDTAVYFCARSRMVTAYGMDYWGQGTSVTVSS VL: DIQMTQSPSSLSASVGDRVTITCKASQNVGTAVAWYQQKPGKAPKLLIYSASNRYTGVPSRFSGSGSGTDFTLTISSLQPEDFATYYCQQYSSYPLTFGQGTKLEIKR

>  <observedValue>
7.77

$$$$

Turning now to a further binder:
Q: Suppose we examine the binder humanized anti-RAGE antibody h11E6.1 (antibody, V domains shown, Full-length humanized antibody transiently produced in 293-6E cells) VH: EVQLVQSGSELKKPGASVKVSCKASGYTFTNFGMNWVRQAPGQGLEWMGYINTNTGESIYSEEFKGRFVFSLDTSVSTAYLQICSLKAEDTAVYYCARSRMVTAYGMDYWGQGTTVTVSS VL: DIQMTQSPSSLSASVGDRVTITCKASQNVGTAVAWYQQKPGKAPKLLIYSASNRYTGVPSRFSGSGSGTDFTLTISSLQPEDFATYYCQQYSSYPLTFGQGTKLEIKR ; what pIC50 value has been reported?
Ans: 7.71
